Target: UniProtKB Q9NRW4
Sequence (Q9NRW4 whole entry): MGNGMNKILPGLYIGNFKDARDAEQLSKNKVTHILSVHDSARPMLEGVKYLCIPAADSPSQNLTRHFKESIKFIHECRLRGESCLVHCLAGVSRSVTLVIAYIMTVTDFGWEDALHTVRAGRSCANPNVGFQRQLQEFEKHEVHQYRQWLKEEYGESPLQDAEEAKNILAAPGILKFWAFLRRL
pIC50: −log10 of the molar value.

| COMPOUND STRING | MEASURED TARGET | pIC50 |
| --- | --- | --- |
| O=C(O)c1ccc(/C=N/OCc2ccc(-c3cccc(C(F)(F)P(=O)(O)O)c3)cc2)o1 | UniProtKB Q9NRW4 | < 3.40 |
